ASSAY_SUMMARY: Oral bioavailability in rat plasma at 50 mg/kg dosed via gavage
Assay type: ADME, organism-based
RECORDED_ENDPOINT: bioavailability (%)
Write the answer as a number in %, unit excluded.

Reported bioavailability for C[N+](C)(C)CCO.O=C([O-])c1cc(/N=N/c2ccc(S(=O)(=O)Nc3ccccn3)cc2)ccc1O was 5.6

====

ASSAY_SUMMARY: Drug recovery in rat bile at 50 mg/kg dosed via oral gavage
Assay type: ADME, organism-based
ASSAY_CONTEXT: read-out: Drug recovery
RECORDED_ENDPOINT: dose excreted (%)
Output spec: scalar in %, unitless text.

For record C[N+](C)(C)CCO.O=C([O-])c1cc(/N=N/c2ccc(S(=O)(=O)Nc3ccccn3)cc2)ccc1O the listed dose excreted is 1.8
